Experiment: Stability in acidic buffer at pH 1.0 in 37 degC
Format: physicochemical
Settings: acidic buffer
reportedProperty: half-life (h)
Express your answer in h, writing the number without its unit.

Problem: Note half-life for the compound shown: `Cc1cn([C@@H]2O[C@H](CO)[C@H]3O[C@@H](CP(=O)(O)O)O[C@H]32)c(=O)[nH]c1=O`
Solution: 98
